Recorded pIC50 values (Cholecystokinin receptor type A (Rattus norvegicus)) are given below.
pIC50 here is simply -log10 of the concentration when that concentration is written in mol/L.

[
  {
    "molecule": "C[C@](Cc1c[nH]c2ccccc12)(NC(=O)OC1C2CC3CC(C2)CC1C3)C(=O)N/C(=C\\c1ccccc1)C(=O)O (some centres not stated)",
    "measure": "pIC50",
    "experimental result": 7.22
  }
]

Now look at this entry.
q: Query (molecule): COC(=O)[C@@]1(NC(=O)[C@@](C)(Cc2c[nH]c3ccccc23)NC(=O)OC2C3CC4CC(C3)CC2C4)C[C@H]1c1ccccc1 (some centres not stated) ; field requested: pIC50
a: 7.59
